ASSAY_METHOD_TEXT: Maximum plasma concentration (Cmax) was determined in fasted dogs after oral administration of 25 mg/kg of the compound.
Format: ADME, organism-based, Canis lupus familiaris
Set-up: dose 25 mg/kg, route oral
MEASUREMENT_CONDITIONS: dog
PARAMETER_MEASURED: Cmax (µM)
Give the quantity in µM, number only.

Can you share its Cmax? I mean this compound: Cc1ccccc1CNC(=O)[C@H]1N(C(=O)[C@@H](O)[C@H](Cc2ccccc2)NC(=O)c2cccc(O)c2C)CSC1(C)C 5.3

====

ASSAY_METHOD_TEXT: Percent bioavailability (F%) was determined in dogs fed after oral administration of 25 mg/kg of the compound
Type: ADME, organism-based, Canis lupus familiaris
MEASUREMENT_CONDITIONS: dog, in vivo
PARAMETER_MEASURED: bioavailability (%)
I only need the number, in %, no unit after it.

Record request: bioavailability value, item Cc1ccccc1CNC(=O)[C@H]1N(C(=O)[C@@H](O)[C@H](Cc2ccccc2)NC(=O)c2cccc(O)c2C)CSC1(C)C 32.6
